Entry source: patent US5871954A

Below, each entry is listed alongside its reported Acyl CoA Vm.
molecular target: yeast NMT (Saccharomyces cerevisiae, UniProt P14743); construct: 11,000-fold purified preparation of yeast NMT; from tissue; host or cells: yeast; test: in vitro yeast NMT assay, kinetics of fatty acid analog substrates with iodinated peptide GNAAS[125I]YRR; type: biochemical; conditions: Table 2; relative to myristate control 100%; peptide at its Km
Numbers only; they are read as %.

In the examples that follow, each entry is paired with its recorded Acyl CoA Vm.
*Q* Give its Acyl CoA Vm value. Item: CCCCOCCCCCCCCCCC(=O)O
*A* 80

*Q* Same lookup for CCOCCCCCCCCCCC(=O)O [CH3 CH2 O(CH2)10 COOH, 11-(Ethoxy)undecanoic acid] , please.
*A* 64

Next:
*Q* Look up Acyl CoA Vm for this molecule: CCCCCCCCSCCCCC(=O)O
*A* 160

*Q* Can you check CCCCCCCCCCCCCC(=O)O [CH3 (CH2)12 COOH, myristic acid, reference compound] next?
*A* 100

*Q* Can you handle CCSCCCCCCCCCCC(=O)O [CH3 CH2 S(CH2)10 COOH, 11-(Ethylthio)undecanoic acid] next?
*A* 130

*Q* Can you check CCCOCCCCCCCCCC(=O)O next?
*A* 250

*Q* What about this molecule? CCCSCCCCCCCCCC(=O)O
*A* 250

*Q* Same again, this time with C#CCOCCCCCCCCCC(=O)O
*A* 320

###

experiment: C18 reverse phase HPLC elution of acyl peptides (hydrophobicity); type: physicochemical; conditions: Table 2; C18 reverse phase HPLC
// reported Elution Time per item
The response must be a number in min with no trailing unit.

Solved cases (5 shown):
*Q* I am curious: what Elution Time value has been reported for CCCCOCCCCCCCCCCC(=O)O ?
*A* 19

*Q* Then this molecule: CCCCCCCCOCCCCC(=O)O
*A* 16

*Q* Same for CCCCCCCCCCCCCC(=O)O [CH3 (CH2)12 COOH, myristic acid, reference compound]
*A* 26

*Q* Follow-up entry: CCOCCCCCCCCCCC(=O)O [CH3 CH2 O(CH2)10 COOH, 11-(Ethoxy)undecanoic acid]
*A* 12

*Q* Also, CCSCCCCCCCCCCC(=O)O [CH3 CH2 S(CH2)10 COOH, 11-(Ethylthio)undecanoic acid] please.
*A* 18

Next:
*Q* What Elution Time value was documented for this molecule, C#CCOCCCCCCCCCC(=O)O ?
*A* 9

*Q* Next molecule up: CCCCCCCCSCCCCC(=O)O
*A* 21

*Q* Try this molecule next: CCCSCCCCCCCCCC(=O)O
*A* 18

###

assay: C18 reverse phase HPLC elution of acyl peptides (hydrophobicity); assay type: physicochemical; settings: HPLC; acyl derivative of GNAAAARR
PARAMETER: elution time of fatty acyl derivative of GNAAAARR (min)
Unit min implied. Number only.

Examples with answers:
*Q* If you can, please state the reported elution time of fatty acyl derivative of GNAAAARR value of CCCCCCCCCCCC(=O)O [dodecanoic acid, reference compound] .
*A* 18

*Q* Same for CCCCCCCCCC(=O)O [decanoic acid, reference compound]
*A* 9

---
*Q* Query (compound): CCCCCCCCCCCCCCCC(=O)O [palmitic acid, reference compound] ; field requested: elution time of fatty acyl derivative of GNAAAARR
*A* 30

*Q* Check CCCCCCCCCCCCCC(=O)O [CH3 (CH2)12 COOH, myristic acid, reference compound] too.
*A* 24

###

Target: yeast NMT (Saccharomyces cerevisiae, UniProt P14743)
Construct: 11,000-fold purified preparation of yeast NMT; from tissue; host or cells: yeast
Sequence (P14743 1-455): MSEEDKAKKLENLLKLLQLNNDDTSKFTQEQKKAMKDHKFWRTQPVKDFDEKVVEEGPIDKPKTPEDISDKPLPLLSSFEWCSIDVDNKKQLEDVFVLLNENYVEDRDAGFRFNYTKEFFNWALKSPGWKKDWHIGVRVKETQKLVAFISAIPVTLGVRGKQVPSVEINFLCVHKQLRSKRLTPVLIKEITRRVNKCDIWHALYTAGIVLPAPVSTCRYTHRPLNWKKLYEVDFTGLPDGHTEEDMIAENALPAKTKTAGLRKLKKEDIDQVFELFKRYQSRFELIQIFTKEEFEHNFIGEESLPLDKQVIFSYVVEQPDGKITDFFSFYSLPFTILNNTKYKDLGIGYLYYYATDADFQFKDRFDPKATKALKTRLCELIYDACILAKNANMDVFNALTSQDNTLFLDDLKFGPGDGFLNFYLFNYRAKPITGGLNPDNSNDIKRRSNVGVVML
Experiment: in vitro yeast NMT assay, kinetics of fatty acid analog substrates with iodinated peptide GNAAS[125I]YRR
Format: biochemical
Details: Table 2; relative to myristate control 100%; fatty acid analog at 15 μM
PARAMETER: Peptide Vm (%)
All answers are understood in %, so give the number only.

Please review the following examples before continuing.
*Q* Given the molecule C#CCOCCCCCCCCCC(=O)O [HC≡CCH2 O(CH2)9 COOH, 10-(2-Propynoxy)decanoic acid] , what is its reported Peptide Vm?
*A* 200

*Q* Also CCCOCCCCCCCCCC(=O)O [CH3 (CH2)2 O(CH2)9 COOH, 10-(Propoxy)decanoic acid] ?
*A* 150

*Q* Further, for CCSCCCCCCCCCCC(=O)O [CH3 CH2 S(CH2)10 COOH, 11-(Ethylthio)undecanoic acid] ?
*A* 98

*Q* Please give the result for CCOCCCCCCCCCCC(=O)O [CH3 CH2 O(CH2)10 COOH, 11-(Ethoxy)undecanoic acid] too.
*A* 62

*Q* For CCCCCCCCCCCCCC(=O)O [CH3 (CH2)12 COOH, myristic acid, reference compound] then?
*A* 100

Consider now this further molecule.
*Q* Give the measured Peptide Vm of CCCCOCCCCCCCCCCC(=O)O [CH3 (CH2)3 O(CH2)10 COOH, 11-(1-Butoxy)undecanoic acid] .
*A* 25
